system: anti-14,15-DHET IgG; assay: Specificity of the 14,15-DHET competitive ELISA (eicosanoid panel); type: binding, goat; conditions: competition with 14,15-DHET for anti-14,15-DHET IgG in ELISA
endpoint: cross-reactivity relative to 14,15-DHET (%)

// known answers, use as guide
>>> print(df.to_string())
                                   compound        subjectoftest  outputunit  endpointresult
0  CCCCC/C=C\C/C=C\C/C=C\CC(O)C(O)CCCC(=O)O (stereo not drawn)  anti-14,15-DHET IgG           %            0.02
1  CCCCCC(O)C(O)CC=CCC=CCC=CCCCC(=O)O (stereo not drawn) [14,15-DHET, 14,15-dihydroxyeicosatrienoic acid]  anti-14,15-DHET IgG           %          100.00
2  CCCCC/C=C\C[C@H]1O[C@H]1C/C=C\C/C=C\CCCC(=O)O  anti-14,15-DHET IgG           %            0.05

(P) CCCCCC=CCC=CCC(O)C(O)CC=CCCCC(=O)O (stereo not drawn) [8,9-DHET, 8,9-dihydroxyeicosatrienoic acid]
(Q) CCCCC[C@H](O)/C=C/[C@H]1OC(O)C[C@H](O)[C@@H]1C/C=C\CCCC(=O)O (stereo partly drawn)
Would you let me know which has the greater cross-reactivity relative to 14,15-DHET value, P or Q ? Could you answer with the label of the item you picked?
P

* * *

system: anti-14,15-DHET IgG; experiment: Specificity of the 14,15-DHET competitive ELISA (eicosanoid panel); assay type: binding, goat; conditions: competition with 14,15-DHET for anti-14,15-DHET IgG in ELISA
endpoint: cross-reactivity relative to 14,15-DHET (%)

// known answers, use as guide
                                   compound                                 endpoint  outputunit  endpointresult
0     CCCCC/C=C\C/C=C\C/C=C\C/C=C\CCCC(=O)O  cross-reactivity relative to 14,15-DHET           %            0.05
1  CCCCC/C=C\C/C=C\C/C=C\CC1OC1CCCC(=O)O (stereo not shown)  cross-reactivity relative to 14,15-DHET           %            0.02
2  CCCCCC1OC1C/C=C\C/C=C\C/C=C\CCCC(=O)O (stereo not shown)  cross-reactivity relative to 14,15-DHET           %            1.50
3  CCCCC[C@H](O)/C=C/C=C\C/C=C\C=C\[C@@H](O)CCCC(=O)O [5(s)15(S)DiHETE]  cross-reactivity relative to 14,15-DHET           %            0.20

(I) CCCCC[C@H](O)/C=C/C=C\C/C=C\C/C=C\CCCC(=O)O [15(S)HETE]
(II) CCCCC/C=C\CC(O)C(O)C/C=C\C/C=C\CCCC(=O)O (stereo not shown)
Would you let me know which has the greater cross-reactivity relative to 14,15-DHET value, I or II ? Could you answer with the label of the item you picked?
II

* * *

tested on: anti-14,15-DHET IgG; assay: Specificity of the 14,15-DHET competitive ELISA (eicosanoid panel); assay type: binding, goat; conditions: competition with 14,15-DHET for anti-14,15-DHET IgG in ELISA
endpoint: cross-reactivity relative to 14,15-DHET

Tell me the measured cross-reactivity relative to 14,15-DHET of CCCCC[C@H](O)/C=C/[C@@H]1[C@@H](C/C=C\CCCC(=O)O)[C@@H](O)C[C@H]1O [PGF2α] , please.
<0.01%

Tell me the measured cross-reactivity relative to 14,15-DHET of CCCCC[C@H](O)/C=C/[C@H]1[C@H](O)CC(=O)[C@@H]1C/C=C\CCCC(=O)O [PGE2] , please.
<0.01%

Tell me the measured cross-reactivity relative to 14,15-DHET of CCCCC/C=C\C/C=C\CC1OC1C/C=C\CCCC(=O)O (stereo not shown) [8,9-EET] , please.
0.40%

Tell me the measured cross-reactivity relative to 14,15-DHET of CCCCC[C@H](O)/C=C/[C@@H]1[C@@H](CC(=O)CCCCC(=O)O)[C@@H](O)C[C@H]1O [6-keto-PGF1α] , please.
<0.01%
